- System: Mycobacterium tuberculosis
- experiment_summary: Antimycobacterial activity against Mycobacterium tuberculosis H37Rv assessed as inhibition of bacterial growth by microdilution alamar blue broth assay
- Type: functional, organism-based
# maps each entry to its MIC
Respond numerically; units are µM and should not be typed.

molecule: NNC(=O)c1ccncc1 [ISONIAZID]
reported_result: 0.31

molecule: CC(C)c1ccc([C@@H]2[C@H]3CSCN3C3(C(=O)c4ccccc4C3=O)[C@]23CSc2ccccc2C3=O)cc1
reported_result: 100

molecule: CC[C@@H](CO)NCCN[C@@H](CC)CO [ETHAMBUTOL]
reported_result: 12.5

molecule: O=C1c2ccccc2C(=O)C12N1CSC[C@@H]1C(c1ccccc1Cl)[C@@]21CSc2ccccc2C1=O (single isomer, unassigned)
reported_result: 50

molecule: O=C1c2ccccc2C(=O)C12N1CSC[C@@H]1[C@@H](c1ccc(F)cc1)[C@@]21CSc2ccccc2C1=O
reported_result: 50

Input line: I have this molecule here, CN1C[C@@H](c2cccs2)[C@@]2(CSc3ccccc3C2=O)C12C(=O)c1ccccc1C2=O , and I need its recorded MIC.
Output line: 100

Input line: Please report the recorded MIC for O=C1c2ccccc2C(=O)C12N1CSC[C@@H]1[C@@H](c1cccc(F)c1)[C@@]21CSc2ccccc2C1=O .
Output line: 50

Input line: Quick check: MIC of COc1ccc([C@@H]2CN(C)C3(C(=O)c4ccccc4C3=O)[C@]23CSc2ccccc2C3=O)cc1 ?
Output line: 50

###

- Tested on: Mycobacterium tuberculosis
- experiment_summary: Antimycobacterial activity against Mycobacterium tuberculosis H37Rv assessed as inhibition of bacterial growth by microdilution alamar blue broth assay
- Assay type: functional, organism-based
// classify: if (MIC < 50 µM) 1 else -1

Below are worked cases with known answers.
compound: O=C1c2ccccc2C(=O)C12N1CSC[C@@H]1C(c1ccc(Cl)cc1Cl)[C@@]21CSc2ccccc2C1=O (single isomer, unassigned)
classification: 1

compound: NCC[C@H](O)C(=O)N[C@@H]1C[C@H](N)[C@@H](O[C@H]2O[C@H](CN)[C@@H](O)[C@H](O)[C@H]2O)[C@H](O)[C@H]1O[C@H]1O[C@H](CO)[C@@H](O)[C@H](N)[C@H]1O
classification: 1

Input line: Bench note: check whether CCc1nc(N)nc(N)c1-c1ccc(Cl)cc1 shows MIC below 50 µM
Output line: -1

Input line: Does the reported MIC of the following compound sit strictly below 50 µM? CN1C[C@@H](c2cccc(F)c2)[C@@]2(CSc3ccccc3C2=O)C12C(=O)c1ccccc1C2=O
Output line: 1

Input line: Report whether reported MIC is lower than 50 µM (strictly) for Cc1ccc([C@@H]2CN(C)C3(C(=O)c4ccccc4C3=O)[C@]23CSc2ccccc2C3=O)cc1
Output line: -1

###

- measured_on: Acetylcholinesterase (Homo sapiens, UniProt P22303)
- Sequence (P22303 whole entry): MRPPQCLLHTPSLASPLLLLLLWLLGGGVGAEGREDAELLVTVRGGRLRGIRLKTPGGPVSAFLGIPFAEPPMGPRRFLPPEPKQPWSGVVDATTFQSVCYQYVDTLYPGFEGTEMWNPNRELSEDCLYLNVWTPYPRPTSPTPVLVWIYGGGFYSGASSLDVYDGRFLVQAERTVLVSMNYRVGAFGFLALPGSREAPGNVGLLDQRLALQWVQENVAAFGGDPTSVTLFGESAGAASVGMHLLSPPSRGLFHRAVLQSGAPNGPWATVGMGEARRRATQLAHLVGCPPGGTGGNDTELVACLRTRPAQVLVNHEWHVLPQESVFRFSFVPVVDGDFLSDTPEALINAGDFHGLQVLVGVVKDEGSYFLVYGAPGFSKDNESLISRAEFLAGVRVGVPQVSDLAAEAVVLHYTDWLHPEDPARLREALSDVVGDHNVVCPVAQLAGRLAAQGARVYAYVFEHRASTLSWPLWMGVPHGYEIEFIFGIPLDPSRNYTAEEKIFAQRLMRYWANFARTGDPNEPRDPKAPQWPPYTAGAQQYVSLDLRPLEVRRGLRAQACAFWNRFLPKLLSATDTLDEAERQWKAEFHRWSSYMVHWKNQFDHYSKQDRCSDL
endpoint_name: IC50 (µM)
// note: answer is a bare numeric in µM

Look over these answered cases.
compound: CN1C[C@@H](c2ccc(Br)cc2)[C@@]2(CSc3ccccc3C2=O)C12C(=O)c1ccccc1C2=O
IC50, µM: 28.3
--
compound: Cc1ccc([C@@H]2CN(C)C3(C(=O)c4ccccc4C3=O)[C@]23CSc2ccccc2C3=O)cc1
IC50, µM: 6.6
--
compound: O=C1c2ccccc2C(=O)C12N1CSC[C@@H]1[C@@H](c1cccc3ccccc13)[C@@]21CSc2ccccc2C1=O
IC50, µM: 16.5
--
compound: Cc1ccc([C@@H]2[C@H]3CSCN3C3(C(=O)c4ccccc4C3=O)[C@]23CSc2ccccc2C3=O)cc1
IC50, µM: 7.11
--
compound: COc1ccc([C@@H]2[C@H]3CSCN3C3(C(=O)c4ccccc4C3=O)[C@]23CSc2ccccc2C3=O)cc1
IC50, µM: 1.1
--
compound: O=C1c2ccccc2C(=O)C12N1CSC[C@@H]1[C@@H](c1cccc(Br)c1)[C@@]21CSc2ccccc2C1=O
IC50, µM: 38.3

Input line: Query the reported IC50 for Acetylcholinesterase (Homo sapiens, UniProt P22303); item: CN1C[C@@H](c2cccc(F)c2)[C@@]2(CSc3ccccc3C2=O)C12C(=O)c1ccccc1C2=O
Output line: 24.6

Input line: # query: IC50 | item CN1C[C@@H](c2ccc(Cl)cc2)[C@@]2(CSc3ccccc3C2=O)C12C(=O)c1ccccc1C2=O | system: Acetylcholinesterase (Homo sapiens, UniProt P22303)
Output line: 22.2

Input line: Hello, I am looking for reported IC50 with Acetylcholinesterase (Homo sapiens, UniProt P22303) for CN1CC(c2ccccc2Br)[C@@]2(CSc3ccccc3C2=O)C12C(=O)c1ccccc1C2=O (single isomer, unassigned) . Could you help?
Output line: 27.1

Input line: Please state recorded IC50 (tested on Acetylcholinesterase (Homo sapiens, UniProt P22303)) of O=C1c2ccccc2C(=O)C12N1CSC[C@@H]1[C@@H](c1ccccc1)[C@@]21CSc2ccccc2C1=O
Output line: 12.9

Input line: What IC50 appears in the records for this compound with Acetylcholinesterase (Homo sapiens, UniProt P22303)? O=C1c2ccccc2C(=O)C12N1CSC[C@@H]1[C@@H](c1ccc(Br)cc1)[C@@]21CSc2ccccc2C1=O
Output line: 34.6

Input line: Lab note: need IC50 with Acetylcholinesterase (Homo sapiens, UniProt P22303) for entry CN1C[C@@H](c2ccc(F)cc2)[C@@]2(CSc3ccccc3C2=O)C12C(=O)c1ccccc1C2=O , please look it up.
Output line: 23.3

Input line: Look up IC50 with Acetylcholinesterase (Homo sapiens, UniProt P22303) for this compound: O=C1c2ccccc2C(=O)C12N1CSC[C@@H]1[C@@H](c1cccc(F)c1)[C@@]21CSc2ccccc2C1=O
Output line: 12.2

Input line: Hi! What's the reported IC50 for CN1C[C@@H](c2ccccc2)[C@@]2(CSc3ccccc3C2=O)C12C(=O)c1ccccc1C2=O on Acetylcholinesterase (Homo sapiens, UniProt P22303)?
Output line: 11.1

###

- Test system: Mycobacterium tuberculosis
- experiment_summary: Antimycobacterial activity against Mycobacterium tuberculosis H37Rv assessed as inhibition of bacterial growth by microdilution alamar blue broth assay
- Type: functional, organism-based
Quick reference for MIC among some molecules
Form entry: value (µM) — number only.

As a guide, the following entries are already answered.
molecule: CN1C[C@@H](c2cccc(Br)c2)[C@@]2(CSc3ccccc3C2=O)C12C(=O)c1ccccc1C2=O
unit: µM
MIC: 25

molecule: Cc1ccc([C@@H]2[C@H]3CSCN3C3(C(=O)c4ccccc4C3=O)[C@]23CSc2ccccc2C3=O)cc1
unit: µM
MIC: 50

molecule: CN1C[C@@H](c2cccc3ccccc23)[C@@]2(CSc3ccccc3C2=O)C12C(=O)c1ccccc1C2=O
unit: µM
MIC: 25

molecule: CN1CC(c2ccc(Cl)cc2Cl)[C@@]2(CSc3ccccc3C2=O)C12C(=O)c1ccccc1C2=O (single isomer, unassigned)
unit: µM
MIC: 6.25

molecule: O=C1c2ccccc2C(=O)C12N1CSC[C@@H]1[C@@H](c1ccccc1)[C@@]21CSc2ccccc2C1=O
unit: µM
MIC: 100

molecule: O=C1c2ccccc2C(=O)C12N1CSC[C@@H]1[C@@H](c1cccs1)[C@@]21CSc2ccccc2C1=O
unit: µM
MIC: 50

molecule: O=C1c2ccccc2C(=O)C12N1CSC[C@@H]1[C@@H](c1cccc3ccccc13)[C@@]21CSc2ccccc2C1=O
unit: µM
MIC: 50

Switching to the query record.
Input line: Provide the documented MIC with Mycobacterium tuberculosis as the system for O=C1c2ccccc2C(=O)C12N1CSC[C@@H]1[C@@H](c1ccc(Cl)cc1)[C@@]21CSc2ccccc2C1=O
Output line: 50

###

- Tested on: HT-29
- experiment_summary: Antiproliferative activity against human HT-29 cells assessed as inhibition of cell proliferation incubated for 72 hrs by CellTiter-Glo assay
- Assay type: functional, cell-based
- setup_conditions: HT-29, 72 h
Listed here are molecules together with their documented pIC50.
Entry type: numeric. Quantity: pIC50, the -log10 of concentration in molar units.

molecule: O=C1c2ccccc2C(=O)C12N1CSC[C@@H]1[C@@H](c1ccc(Cl)cc1)[C@@]21CSc2ccccc2C1=O
pIC50: 4.12
//
molecule: O=C1c2ccccc2C(=O)C12N1CSC[C@@H]1[C@@H](c1ccc(F)cc1)[C@@]21CSc2ccccc2C1=O
pIC50: 4.02
//
molecule: O=C1c2ccccc2C(=O)C12N1CSC[C@@H]1[C@@H](c1cccs1)[C@@]21CSc2ccccc2C1=O
pIC50: 4.03
//
molecule: CN1C[C@@H](c2cccs2)[C@@]2(CSc3ccccc3C2=O)C12C(=O)c1ccccc1C2=O
pIC50: 4.02

Input line: Reported pIC50, molecule CN1C[C@@H](c2cccc3ccccc23)[C@@]2(CSc3ccccc3C2=O)C12C(=O)c1ccccc1C2=O : ____
Output line: 4.01

Input line: Which value of pIC50 has been reported for Cc1ccc([C@@H]2[C@H]3CSCN3C3(C(=O)c4ccccc4C3=O)[C@]23CSc2ccccc2C3=O)cc1 in the records?
Output line: 4.05

Input line: State the recorded pIC50 for this entry: COc1ccc([C@@H]2[C@H]3CSCN3C3(C(=O)c4ccccc4C3=O)[C@]23CSc2ccccc2C3=O)cc1
Output line: 4.01

Input line: # input molecule: CC(C)c1ccc([C@@H]2[C@H]3CSCN3C3(C(=O)c4ccccc4C3=O)[C@]23CSc2ccccc2C3=O)cc1 ; wanted: its pIC50
Output line: 4.03

Input line: For the molecule shown here, O=C1c2ccccc2C(=O)C12N1CSC[C@@H]1[C@@H](c1ccc(Br)cc1)[C@@]21CSc2ccccc2C1=O , give the reported pIC50.
Output line: 4.06

Input line: Which value of pIC50 has been reported for CN1C[C@@H](c2ccccc2)[C@@]2(CSc3ccccc3C2=O)C12C(=O)c1ccccc1C2=O in the records?
Output line: 4.06

Data provenance is ChEMBL document CHEMBL4715772.
